Recorded values, source ChEMBL document CHEMBL1138144.

biological target: Sodium-dependent dopamine transporter (Homo sapiens, UniProt Q01959)
Sequence (Q01959 whole entry): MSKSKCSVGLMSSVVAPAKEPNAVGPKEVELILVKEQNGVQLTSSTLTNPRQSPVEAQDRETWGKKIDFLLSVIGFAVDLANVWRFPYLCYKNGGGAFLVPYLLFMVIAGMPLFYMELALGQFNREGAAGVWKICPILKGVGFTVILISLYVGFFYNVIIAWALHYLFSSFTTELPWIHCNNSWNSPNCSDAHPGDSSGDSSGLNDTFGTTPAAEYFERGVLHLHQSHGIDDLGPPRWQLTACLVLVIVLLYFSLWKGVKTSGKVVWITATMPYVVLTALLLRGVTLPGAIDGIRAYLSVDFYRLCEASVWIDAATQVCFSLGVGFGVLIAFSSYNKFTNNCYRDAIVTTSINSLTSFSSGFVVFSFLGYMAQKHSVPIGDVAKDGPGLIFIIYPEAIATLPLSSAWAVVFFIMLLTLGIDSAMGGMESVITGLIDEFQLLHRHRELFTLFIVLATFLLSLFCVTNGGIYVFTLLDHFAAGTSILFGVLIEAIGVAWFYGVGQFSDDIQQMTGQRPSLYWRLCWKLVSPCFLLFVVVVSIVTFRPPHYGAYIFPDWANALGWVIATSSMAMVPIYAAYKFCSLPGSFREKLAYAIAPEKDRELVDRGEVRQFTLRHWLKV
Listed below: pKi values for each entry.
Conceptually, pKi converts a concentration in mol/L into minus its log10.

• CCCC(C(=O)c1ccc(NC(C)=O)cc1)N1CCCC1 (configuration not stated) = 7.52
• CCCC(C(=O)c1ccc(-c2ccco2)cc1)N1CCCC1 (configuration not stated) = 6.98
• CCCC(C(=O)c1cccc(C)c1)N1CCCC1 (configuration not stated) = 7.29

Input line: Give the reported pKi for C=CCC(C(=O)c1ccc(Cl)c(Cl)c1)N1CCCC1 (configuration not stated) (system: Sodium-dependent dopamine transporter (Homo sapiens, UniProt Q01959)).
Output line: 7.40

Input line: # iterate: CCCC(CN1CCCC1)C(=O)c1ccc(Cl)c(Cl)c1 (configuration not stated)
Output line: 5.82

Input line: Follow-up entry: CCCC(C(=O)c1ccc2ccccc2c1)N1CCCC1 (configuration not stated)
Output line: 7.70

Input line: Same question, CCCC(C(=O)c1cccc(I)c1)N1CCCC1 (configuration not stated) this time
Output line: 6.96

Input line: Request: CCCC(C(=O)c1ccc(Cl)c(Cl)c1)N1CCCCC1 (configuration not stated)
Output line: 6.84

Input line: // query: Cc1ccc(C(=O)C(CC(C)C)N2CCCC2)cc1 (configuration not stated)
Output line: 7.86

Input line: Another: `CCC[C@@H](C(=O)c1ccc(C)cc1)N1CCCC1`
Output line: 7.74

====

biological target: Sodium-dependent dopamine transporter (Homo sapiens, UniProt Q01959); experiment: Inhibition of [3H] dopamine uptake into human DAT expressed in HEK293 cells
pIC50: −log10 of the molar value.
Could you label it T if measured pIC50 is 7 or higher, and F otherwise?

Input line: Hello, I need to know if `CCC[C@@H](C(=O)c1ccc(C)cc1)N1CCCC1` has measured pIC50 not below 7. Thanks!
Output line: T

Input line: Also need CCCCNC(CCC)C(=O)c1ccc(Cl)c(Cl)c1 (stereo unspecified) , thanks.
Output line: F

Input line: Lookup C#CCC(C(=O)c1ccc(C)cc1)N1CCCC1 (stereo unspecified)
Output line: F

====

Measured Ki on Sodium-dependent noradrenaline transporter (Homo sapiens) follows.
Sequence (P23975 whole entry): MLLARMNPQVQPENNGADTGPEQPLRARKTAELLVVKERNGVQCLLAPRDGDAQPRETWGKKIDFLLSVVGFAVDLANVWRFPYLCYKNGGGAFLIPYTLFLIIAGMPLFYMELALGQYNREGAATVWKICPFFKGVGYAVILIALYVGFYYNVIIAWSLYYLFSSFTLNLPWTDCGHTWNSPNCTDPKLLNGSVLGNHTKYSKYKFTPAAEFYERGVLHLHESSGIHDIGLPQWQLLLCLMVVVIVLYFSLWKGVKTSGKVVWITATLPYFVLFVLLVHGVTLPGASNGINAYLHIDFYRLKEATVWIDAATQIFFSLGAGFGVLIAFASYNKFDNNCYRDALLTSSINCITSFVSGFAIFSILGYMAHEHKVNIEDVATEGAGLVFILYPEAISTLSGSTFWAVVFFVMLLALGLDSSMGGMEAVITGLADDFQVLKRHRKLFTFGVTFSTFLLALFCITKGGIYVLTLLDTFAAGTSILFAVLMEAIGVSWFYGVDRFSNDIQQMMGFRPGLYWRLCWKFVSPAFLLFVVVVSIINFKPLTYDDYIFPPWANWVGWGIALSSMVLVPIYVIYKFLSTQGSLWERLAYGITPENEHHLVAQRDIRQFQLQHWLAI
Please reply with the bare figure in nM and do not write the unit itself.

- CCCC(C(=O)c1cccc(I)c1)N1CCCC1 (stereo not drawn): 670

Input line: For the compound shown here, CCCC(C(=O)c1ccc(F)cc1)N1CCCC1 (stereo not drawn) , give the reported Ki.
Output line: 830

Input line: Also, CCCC(C(=O)c1ccc(-c2ccco2)cc1)N1CCCC1 (stereo not drawn) please.
Output line: 95

Input line: Similarly, CCCC(C(=O)c1cccc(C)c1)N1CCCC1 (stereo not drawn) ?
Output line: 216

Input line: // repeat for CCCC(C(=O)c1ccc(Cl)c(Cl)c1)N1CCCCC1 (stereo not drawn) and report
Output line: 2350

Input line: Also CCCC(C(=O)c1ccc(O)cc1)N1CCCC1 (stereo not drawn) , if possible.
Output line: 1290

====

target: Sodium-dependent dopamine transporter (Homo sapiens); experiment: Inhibition of [3H] dopamine uptake into human DAT expressed in HEK293 cells; type: functional, cell-based
ASSAY_METRIC: IC50 (nM)
Give just the numeric value; nM need not be written.

- CCCC(C(=O)c1ccc(O)c(O)c1)N1CCCC1 (stereo unspecified): 42
- CC#Cc1ccc(C(=O)C(CCC)N2CCCC2)cc1 (stereo unspecified): 11.8
- CCCC(C(=O)c1ccc(Br)cc1)N1CCCC1 (stereo unspecified): 39.5
- CCCC(C(=O)c1cccc(I)c1)N1CCCC1 (stereo unspecified): 52
- CCCC(C(=O)c1ccc(C)cc1)N1CCCC1 (stereo unspecified) [PYROVALERONE]: 52
- CCCC(C(=O)c1ccccc1)N1CCCC1 (stereo unspecified): 52.3

Input line: Look at this molecule and give its reported IC50. CCCC(C(=O)c1ccc(-c2cccs2)cc1)N1CCCC1 (stereo unspecified)
Output line: 539

Input line: Then Cc1ccc(C(=O)C(CC(C)C)N2CCCC2)cc1 (stereo unspecified) ?
Output line: 5.9

Input line: What about CCCC(C(=O)c1ccc(Cl)c(Cl)c1)N1CCCCC1 (stereo unspecified) ?
Output line: 666

====

molecular target: Sodium-dependent serotonin transporter (Homo sapiens); test: Displacement of [125I]RTI-55 from human SERT expressed in HEK293 cells; format: cell-based
Sequence (P31645 whole entry): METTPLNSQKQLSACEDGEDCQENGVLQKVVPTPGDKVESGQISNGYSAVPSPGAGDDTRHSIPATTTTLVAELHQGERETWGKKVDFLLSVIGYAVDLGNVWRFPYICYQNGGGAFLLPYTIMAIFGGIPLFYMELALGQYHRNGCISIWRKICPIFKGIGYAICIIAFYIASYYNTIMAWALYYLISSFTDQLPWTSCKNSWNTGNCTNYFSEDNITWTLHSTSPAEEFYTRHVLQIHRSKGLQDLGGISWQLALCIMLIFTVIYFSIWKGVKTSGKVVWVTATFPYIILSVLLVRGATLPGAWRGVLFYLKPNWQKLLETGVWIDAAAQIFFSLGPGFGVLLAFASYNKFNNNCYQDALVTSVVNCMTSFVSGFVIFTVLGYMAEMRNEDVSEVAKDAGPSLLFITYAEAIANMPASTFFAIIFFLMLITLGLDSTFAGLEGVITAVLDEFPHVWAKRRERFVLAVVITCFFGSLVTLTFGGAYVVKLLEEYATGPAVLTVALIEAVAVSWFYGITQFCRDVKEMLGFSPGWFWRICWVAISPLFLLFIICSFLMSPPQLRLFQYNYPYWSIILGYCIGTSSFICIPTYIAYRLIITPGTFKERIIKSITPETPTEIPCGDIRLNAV
ASSAY_METRIC: pKi
Scale: pKi equals -log10([C]), with [C] in mol/L.

• CCCC(C(=O)c1ccc(OC)cc1)N1CCCC1 (stereo unspecified) = 5.39
• CCCC(CN1CCCC1)C(=O)c1ccc(Cl)c(Cl)c1 (stereo unspecified) = 6.20
• CCCC(C(=O)c1ccc(OC)c(OC)c1)N1CCCC1 (stereo unspecified) = 5.13
• CC#Cc1ccc(C(=O)C(CCC)N2CCCC2)cc1 (stereo unspecified) = 5.17
• CCCC(C(=O)c1ccc(C(=O)OC)cc1)N1CCCC1 (stereo unspecified) = 5.44
• CCCC(C(=O)c1cccc(I)c1)N1CCCC1 (stereo unspecified) = 5.85

Input line: Look up pKi for this compound: CCCC(C(=O)c1ccc2ccccc2c1)N1CCCC1 (stereo unspecified)
Output line: 7.48

Input line: Same thing, different compound: CCC(CC(=O)c1ccc(Cl)c(Cl)c1)N1CCCC1 (stereo unspecified)
Output line: 5.41

Input line: CCCC(C(=O)c1ccc([N+](=O)[O-])cc1)N1CCCC1 (stereo unspecified) ?
Output line: 5.61

Input line: Now give it for CCCC(C(=O)c1ccc(Cl)c(Cl)c1)N1CCCCC1 (stereo unspecified) too.
Output line: 5.61

Input line: What do we get for CCCC(C(=O)c1ccccc1C)N1CCCC1 (stereo unspecified) ?
Output line: 5.43

Input line: Also need CCCC(C(=O)c1ccc(C)cc1)N1CCCC1 (stereo unspecified) , thanks.
Output line: 5.42

Input line: Moving on to the next compound: Cc1ccc(C(=O)C(CC(C)C)N2CCCC2)cc1 (stereo unspecified)
Output line: 5.54

Input line: Query CCCC(CN1CCCC1)C(=O)c1ccc(C)cc1 (stereo unspecified) next
Output line: 5.39

Input line: Same read-out for CCCC(C(=O)c1ccc(Cl)c(Cl)c1)N1CCCC1 (stereo unspecified) ?
Output line: 6.70

Input line: Then this compound: CCCCNC(CCC)C(=O)c1ccc(Cl)c(Cl)c1 (stereo unspecified)
Output line: 5.29

====

target: UniProt P31645; assay: Inhibition of [3H] serotonin uptake into human SERT expressed in HEK293 cells
A collection of compounds and their measured pIC50
Field pIC50 (float): negative decimal logarithm of the concentration in molar.

- CCCC(C(=O)c1ccc(C(=O)OC)cc1)N1CCCC1 (centres undefined): 5.63
- CCCC(C(=O)c1ccc2ccccc2c1)N1CCCC1 (centres undefined): 7.34
- CCCC(CN1CCCC1)C(=O)c1ccc(C)cc1 (centres undefined): 5.32
- CCC(C(=O)c1ccc(Cl)c(Cl)c1)N1CCCC1 (centres undefined): 6.36
- CCCC(C(=O)c1ccc(OC)c(OC)c1)N1CCCC1 (centres undefined): 5.81
- CCCC(C(=O)c1ccccc1C)N1CCCC1 (centres undefined): 5.69
- CCCC(C(=O)c1ccc(Br)cc1)N1CCCC1 (centres undefined): 5.98
- CC#Cc1ccc(C(=O)C(CCC)N2CCCC2)cc1 (centres undefined): 5.48

Input line: pIC50 of CCCC(CN1CCCC1)C(=O)c1ccc(Cl)c(Cl)c1 (centres undefined) on UniProt P31645?
Output line: 6.15

Input line: And then CCCC(C(=O)c1ccc(C(F)(F)F)cc1)N1CCCC1 (centres undefined) , what is it?
Output line: 5.99

Input line: Another compound: CCC(CC(=O)c1ccc(Cl)c(Cl)c1)N1CCCC1 (centres undefined)
Output line: 5.75

Input line: Further, for CCCC(C(=O)c1ccc(C)cc1)N1CCCC1 (centres undefined) [PYROVALERONE] ?
Output line: 5.56

Input line: Now give it for CCCC(C(=O)c1ccc(I)cc1)N1CCCC1 (centres undefined) too.
Output line: 6.71

Input line: Next compound up: CCCC(C(=O)c1ccc(-c2cccs2)cc1)N1CCCC1 (centres undefined)
Output line: 5.71

Input line: Same again, this time with C=CCC(C(=O)c1ccc(Cl)c(Cl)c1)N1CCCC1 (centres undefined)
Output line: 6.36

Input line: `CCC[C@@H](C(=O)c1ccc(C)cc1)N1CCCC1` , same question.
Output line: 5.97

Input line: Now try Cc1ccc(C(=O)C(CC(C)C)N2CCCC2)cc1 (centres undefined) .
Output line: 5.69

Input line: Now consider CCCC(C(=O)c1ccc(-c2ccco2)cc1)N1CCCC1 (centres undefined) and answer again.
Output line: 5.66

Input line: And what about the compound CCCC(C(=O)c1ccc(OC)cc1)N1CCCC1 (centres undefined) ?
Output line: 5.61

Input line: // repeat for CCCC(C(=O)c1ccc(Cl)c(Cl)c1)N1CCCC1 (centres undefined) and report
Output line: 6.22

Input line: Field entry: CCCC(C(=O)c1ccc([N+](=O)[O-])cc1)N1CCCC1 (centres undefined)
Output line: 5.95

Input line: Same question for CCCC(C(=O)c1cccc(I)c1)N1CCCC1 (centres undefined) please.
Output line: 5.97
